# SYSTEM: GPR119 receptor (Mesocricetus auratus)
# Construct: which endogenously express the GPR119 receptor; host or cells: HIT-T15 hamster pancreatic islet cells
# Sequence (A0A1U8CD06 1-334): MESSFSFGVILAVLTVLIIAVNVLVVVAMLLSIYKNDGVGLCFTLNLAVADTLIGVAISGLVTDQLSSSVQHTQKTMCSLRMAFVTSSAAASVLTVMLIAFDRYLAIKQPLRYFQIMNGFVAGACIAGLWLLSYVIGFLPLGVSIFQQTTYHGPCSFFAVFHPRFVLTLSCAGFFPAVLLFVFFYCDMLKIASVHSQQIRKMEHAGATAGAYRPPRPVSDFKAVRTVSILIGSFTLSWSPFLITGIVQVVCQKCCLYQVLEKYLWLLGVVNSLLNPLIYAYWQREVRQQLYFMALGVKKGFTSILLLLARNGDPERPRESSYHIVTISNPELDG
# ASSAY SUMMARY: cAMP assay in HIT-T15 hamster pancreatic islet cells (functional agonist activity)
# Assay type: cell-based
# CONDITION SUMMARY: HIT-T15 cells endogenously expressing GPR119; 30 min at 25° C.; intracellular cAMP
OBSERVABLE: EC50 (µM)
Give bare numbers, in µM.

• CC(C)(C)OC(=O)N1CCC(n2ncc3c(Oc4ccc(C#N)cc4F)ncnc32)CC1 = 0.28
• Cc1ncccc1Nc1ncnc2c1cnn2C1CCN(C(=O)OC(C)(C)C)CC1 = 2.2
• CC(C)OC(=O)N1CCC(n2ncc3c(Nc4cc(F)c(F)cc4F)ncnc32)CC1 = 3.1
• CC(C)OC(=O)N1CCC(n2ncc3c(Oc4ccc(S(C)(=O)=O)cc4F)ncnc32)CC1 = 0.11
• CC(C)C(=O)N1CCC(n2ncc3c(Oc4ccc(S(C)(=O)=O)cc4)ncnc32)CC1 = 0.99

Field: EC50. Fill in for each record below.
1. CC(C)(C)OC(=O)N1CCC(n2ncc3c(Oc4ccc(F)cc4)ncnc32)CC1
2. COc1ccc(Oc2ncnc3c2cnn3C2CCN(C(=O)OC(C)(C)C)CC2)cn1
3. Cc1ncccc1Oc1ncnc2c1cnn2C1CCN(C(=O)OC(C)(C)C)CC1

**Result**
[0.53, 1.5, 0.17]

====

# SYSTEM: GPR119 receptor (Mesocricetus auratus, UniProt A0A1U8CD06)
# Construct: which endogenously express the GPR119 receptor; host or cells: HIT-T15 hamster pancreatic islet cells
# ASSAY SUMMARY: cAMP assay in HIT-T15 hamster pancreatic islet cells (functional agonist activity)
# Assay type: cell-based
# CONDITION SUMMARY: HIT-T15 cells endogenously expressing GPR119; 30 min at 25° C.; intracellular cAMP
Where a name gives a salt, the structure may show the parent alone.
Give EC50 for every item shown.
One number for each entry, in µM.

• Cc1ncccc1Oc1ncnc2c1cnn2C1CCN(C(=O)OC(C)C)CC1 [Example 28, hydrochloride salt] = 0.82
• CC(C)(C)OC(=O)N1CCC(n2ncc3c(Oc4ccc(Br)cc4C#N)ncnc32)CC1 [Example 52] = 0.75
• Cc1nc(Oc2ccc(S(C)(=O)=O)cc2)c2cnn(C3CCN(C(=O)OC(C)(C)C)CC3)c2n1 [Example 175] = 0.028
• Cc1cc(C(=O)N2CCC(n3ncc4c(Oc5ccc(S(C)(=O)=O)cc5)ncnc43)CC2)nn1C [Example 152] = 0.39
• COc1ccc(Oc2ncnc3c2cnn3C2CCN(C(=O)OC(C)(C)C)CC2)cc1 [Example 39] = 0.72
• CC(C)(C)C(=O)N1CCC(n2ncc3c(Oc4ccc(S(C)(=O)=O)cc4)ncnc32)CC1 [Example 138] = 0.78
• Cc1ncccc1Oc1ncnc2c1cnn2C1CCN(C(=O)OCC(C)C)CC1 [Example 107] = 0.19

**Query** Lab request: please report EC50 under test system GPR119 receptor (Mesocricetus auratus, UniProt A0A1U8CD06) for Cc1ncccc1Oc1ncnc2c1cnn2C1CCN(c2nc(C(C)C)no2)CC1 [Example 129]
**Result** 2.3
